The values you see were collected from ChEMBL document CHEMBL5108025.

Tested on: HCT-116
Experiment summary: cells
Reported conditions: Homo sapiens, HCT-116, 72 h
Description: Antiproliferative activity against human HCT-116 cells after 72 hrs by MTT assay
Observable: IC50 (µM)

Smiles string | Observable | Unit spec | Value observed
CCC(=O)NNC(=O)c1csc2nc(CN3CCOCC3)c(-c3ccc(C)cc3)n12 | IC50 | µM | 64.5
COc1ccc(-c2c(CN3CCOCC3)nc3scc(C(=O)NN)n23)cc1 | IC50 | µM | 16.2
CCCC(=O)NNC(=O)c1csc2ncc(-c3ccc(OC)cc3)n12 | IC50 | µM | 59.1
COc1ccc(-c2c(CN3CCOCC3)nc3scc(C(=O)NNC(C)=O)n23)cc1 | IC50 | µM | 29.9
CC(=O)NNC(=O)c1csc2ncc(-c3ccc(C)cc3)n12 | IC50 | µM | 71.8

* * *

pIC50: −log10 of the molar value.
So I've got pIC50 readings for Epidermal growth factor receptor (Homo sapiens), take a look.

Smiles string | pIC50
COc1ccc(-c2c(CN3CCOCC3)nc3scc(C(=O)NN)n23)cc1 | 6.91
Cc1ccc(-c2c(CN3CCCCC3)nc3scc(C(=O)O)n23)cc1 | 6.74
Cc1ccc(-c2c(CN3CCOCC3)nc3scc(C(=O)NN)n23)cc1 | 6.61
NNC(=O)c1csc2nc(CN3CCOCC3)c(-c3ccc(Br)cc3)n12 | 6.38
CCC(=O)NNC(=O)c1csc2ncc(-c3ccc(C)cc3)n12 | 6.35
CC(=O)NNC(=O)c1csc2ncc(-c3ccc(Br)cc3)n12 | 6.82

* * *

Some compounds, each annotated with its measured IC50.
Target or system: Dihydrofolate reductase (Homo sapiens)
Sequence (P00374 whole entry): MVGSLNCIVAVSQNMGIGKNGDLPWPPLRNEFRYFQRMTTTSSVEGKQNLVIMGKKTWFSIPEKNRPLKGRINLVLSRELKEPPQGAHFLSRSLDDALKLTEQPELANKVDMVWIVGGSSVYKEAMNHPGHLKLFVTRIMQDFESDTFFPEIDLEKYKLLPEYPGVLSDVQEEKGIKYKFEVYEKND
Experiment summary: Inhibition of recombinant human DHFR expressed in Escherichia coli incubated for 15 mins and measured by ELISA
Observable: IC50 (nM)

Smiles string | Target or system | Value observed
CC(=O)NNC(=O)c1csc2ncc(-c3ccc(Br)cc3)n12 | Dihydrofolate reductase (Homo sapiens) | 291
CCC(=O)NNC(=O)c1csc2ncc(-c3ccc(C)cc3)n12 | Dihydrofolate reductase (Homo sapiens) | 5670
Cc1ccc(-c2c(CN3CCOCC3)nc3scc(C(=O)NN)n23)cc1 | Dihydrofolate reductase (Homo sapiens) | 123
NNC(=O)c1csc2nc(CN3CCOCC3)c(-c3ccc(Br)cc3)n12 | Dihydrofolate reductase (Homo sapiens) | 3280
COc1ccc(-c2c(CN3CCOCC3)nc3scc(C(=O)NN)n23)cc1 | Dihydrofolate reductase (Homo sapiens) | 585
Cc1ccc(-c2c(CN3CCCCC3)nc3scc(C(=O)O)n23)cc1 | Dihydrofolate reductase (Homo sapiens) | 907

* * *

Target or system: Receptor tyrosine-protein kinase erbB-2 (Homo sapiens, UniProt P04626)
Sequence (P04626 whole entry): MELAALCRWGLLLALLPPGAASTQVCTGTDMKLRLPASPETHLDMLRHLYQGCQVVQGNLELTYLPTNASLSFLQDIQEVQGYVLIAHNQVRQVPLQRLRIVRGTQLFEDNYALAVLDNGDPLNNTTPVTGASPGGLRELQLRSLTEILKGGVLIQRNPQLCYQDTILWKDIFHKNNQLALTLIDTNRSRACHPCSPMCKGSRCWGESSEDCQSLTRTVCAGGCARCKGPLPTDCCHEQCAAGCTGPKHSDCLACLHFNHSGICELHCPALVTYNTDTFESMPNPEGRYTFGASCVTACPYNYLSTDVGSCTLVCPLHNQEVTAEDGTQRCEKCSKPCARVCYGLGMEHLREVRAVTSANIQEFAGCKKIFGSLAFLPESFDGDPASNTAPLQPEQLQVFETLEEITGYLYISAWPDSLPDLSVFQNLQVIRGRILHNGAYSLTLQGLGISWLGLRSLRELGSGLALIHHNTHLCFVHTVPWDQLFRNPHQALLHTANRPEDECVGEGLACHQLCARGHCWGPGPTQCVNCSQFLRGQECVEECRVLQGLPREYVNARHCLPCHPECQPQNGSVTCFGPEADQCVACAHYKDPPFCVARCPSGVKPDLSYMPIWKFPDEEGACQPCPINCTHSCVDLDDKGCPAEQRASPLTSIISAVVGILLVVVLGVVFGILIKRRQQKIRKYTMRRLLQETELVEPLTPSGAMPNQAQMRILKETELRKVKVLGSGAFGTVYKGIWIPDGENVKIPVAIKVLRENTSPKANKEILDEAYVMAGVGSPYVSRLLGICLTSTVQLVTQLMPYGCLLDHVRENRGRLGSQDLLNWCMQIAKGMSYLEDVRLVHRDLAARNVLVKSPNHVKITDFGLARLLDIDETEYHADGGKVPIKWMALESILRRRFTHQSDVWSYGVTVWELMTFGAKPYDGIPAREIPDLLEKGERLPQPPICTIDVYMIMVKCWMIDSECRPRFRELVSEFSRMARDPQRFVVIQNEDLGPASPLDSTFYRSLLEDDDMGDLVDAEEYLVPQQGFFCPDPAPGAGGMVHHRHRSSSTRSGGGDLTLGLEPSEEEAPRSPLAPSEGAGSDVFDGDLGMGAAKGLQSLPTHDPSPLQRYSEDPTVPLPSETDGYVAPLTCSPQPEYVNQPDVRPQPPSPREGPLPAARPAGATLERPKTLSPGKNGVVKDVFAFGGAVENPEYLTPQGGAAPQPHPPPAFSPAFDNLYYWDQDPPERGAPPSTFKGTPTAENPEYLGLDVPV
Experiment summary: Inhibition of recombinant human HER2 incubated for 40 to 45 mins and measured after 15 mins by Kinase-Glo Max assay
Some compounds, each annotated with its measured IC50.

Smiles string | IC50
NNC(=O)c1csc2nc(CN3CCOCC3)c(-c3ccc(Br)cc3)n12 | 121 nM
Cc1ccc(-c2c(CN3CCOCC3)nc3scc(C(=O)NN)n23)cc1 | 357 nM
CC(=O)NNC(=O)c1csc2ncc(-c3ccc(Br)cc3)n12 | 108 nM
CCC(=O)NNC(=O)c1csc2ncc(-c3ccc(C)cc3)n12 | 244 nM
COc1ccc(-c2c(CN3CCOCC3)nc3scc(C(=O)NN)n23)cc1 | 78 nM
Cc1ccc(-c2c(CN3CCCCC3)nc3scc(C(=O)O)n23)cc1 | 146 nM
